- test_target: T1, CBX4 chromodomain (CBX4 ChD), N-terminal His6-tagged recombinant protein (UniProt O00257 8-65, limits assumed)
- T1 construct: domain: chromodomain; not shown: N-terminal His6 tag
- T1 sequence (looked up): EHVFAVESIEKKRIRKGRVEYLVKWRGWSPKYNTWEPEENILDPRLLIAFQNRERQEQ
- protocol_description: direct fluorescence polarization, FAM-labelled ligand at 100 nM, ChD titrated
Square brackets hold non-standard residues; d marks the D form. * marks the point of attachment. triazole = triazole formed by click reaction joining the C-terminal propargylamide to 5/6-carboxyfluorescein; Isoxazole3carbonyl(5-Me) = Cc1cc(C(=O)*)no1; Tyr(3-Cl) = N[C@@H](Cc1ccc(O)c(Cl)c1)C(=O)O; Lys(Et2) = CCN(CC)CCCC[C@H](N)C(=O)O; NH(propargyl) = C#CCN*
metric_name: pKd
Numbers only, as −log10 of the molar value.

Query block: Would you mind telling me what pKd value was observed for {Isoxazole3carbonyl(5-Me)}-[Tyr(3-Cl)]VI[Lys(Et2)]S-{NH(propargyl)-triazole-5/6‑FAM} (also called 97L fluorescein derivative; KED97L (as measured)) [KED97L-FL] ?
Result block: 5.57
